MEASUREMENT_KIND: melting point

COc1ccc(C2=C(c3ccccc3)CCCc3cc(OCc4ccccc4)ccc32)cc1 = 163 to 164 °C
CCC(=O)C(CCCCCCOc1ccc(OC)cc1)C(=O)CC = 50 to 51 °C
COC(=O)Nc1c(C(=O)OC)[nH]c2c(C)ccc(C)c12 = 184 to 185 °C
C=Cc1cnc(NC(=O)C(C)C)nc1 = 110 to 112 °C
c1ccc(C2CCN=C(c3csnn3)N2)cc1 (stereo unspecified) = 158 °C
NCc1cccc(C2CCN(c3cc4c(cc3F)c(=O)c(C(=O)O)cn4C3CC3)C2)c1 (stereo unspecified) = 250 to 253 °C
N#Cc1ccc2nc3cscc3c(=O)n2c1 = 233 to 234 °C
O=C(O)c1sc(Oc2ccc3c(c2)OCO3)c2c1CCc1cnoc1-2 = 226 to 228 °C
COc1ccc(-c2nc(-c3ccccc3)nc(-c3ccccc3)n2)c(O)c1 = 211 to 212 °C
O=C(CBr)OCC1OC(Sc2ccccc2)C(OCc2ccccc2)C(OCc2ccccc2)C1OCc1ccccc1 (stereo unspecified) = 85 to 87 °C
Cc1nc(-c2ccc(C#N)cc2)sc1C(=O)N1CCO[C@@](Cn2cncn2)(c2ccc(F)cc2F)[C@H]1C = 150 to 160 °C
CCC(C)CC(C)NC1=NS(=O)(=O)c2cc(Cl)ccc2N1 (stereo unspecified) = > 220 °C
O=C(Cl)N1CCCCCCCCCCCNC1=O = 65 to 67 °C
S=c1[nH]c(=S)c2[nH]cnc2[nH]1 = 196 to 200 °C
CN(C(=O)OC(C)(C)C)c1cc(Oc2ccc(-c3ccc(O)cc3)cc2)ccc1N = 89 to 91 °C
Nc1cccc(-c2ccc(CCN3CCN(CCc4ccc(F)cc4)CC3)cc2)n1 = 165 to 167 °C
CN1C(=O)N=C(NCc2ccccc2)C1=O = 152 to 154 °C
Cc1ccc(Cc2cnc(NCCCCNc3ccc(Cl)cn3)[nH]c2=O)cn1 = 214 to 215 °C
ON=c1cc(-c2cc3cccn3cn2)oc2ccc(OCCc3cccc(C(F)(F)F)c3)cc12 = 217 to 218 °C
CCCCCc1csc2cc(OC)ccc12 = 43 to 45 °C
CCOC(C)=NOc1nc(C(F)(F)F)cc(=O)n1-c1cc(Oc2ccccc2[N+](=O)[O-])c(Cl)cc1F = 152 to 155 °C
